- Tested on: HaCaT keratinocytes
- assaySummary: SRB colorimetric cell growth assay, keratinocytes
- Assay type: cell-based
- conditions: peptide 1 ng/ml-10 μg/ml, 72 hr, SRB absorbance at 590 nm (FIG. 2a)
Where no end group is shown, it is not given here.
measure: effect on the growth of keratinocytes

• peptide-3: WNT-derived peptide, amino acid sequence AERRRELCRC (WNT-derived peptide 3) = stimulatory effect
• peptide-2: WNT-derived peptide, amino acid sequence LCCGRGHNAR (WNT-derived peptide 2) = stimulatory effect
• peptide-4: WNT-derived peptide, amino acid sequence LCCGRGHNVL (WNT-derived peptide 4) = stimulatory effect
• LCCGRGHRTRTQR (cysteine pairing not given here) [peptide-1] = stimulatory effect
